Tested on: alternansucrase
Test: Comparison of acceptor strengths with alternansucrase, relative amount of alternan formed
Settings: 45 μL 10% (w/v) sucrose, 45 μL 10% (w/v) acceptor, 10 μL alternansucrase, pH 5.4, room temperature; less alternan = stronger acceptor
Measured quantity: Alternan (Rel. %)
One number for each entry, in Rel. %.

Some solved cases for reference:
[
  {
    "Compound": "CC(=O)N[C@H]1C(O)O[C@H](CO)[C@H](O)[C@@H]1O (stereo partly drawn) [N-acetyl-D-galactosamine]",
    "Target entity": "alternansucrase",
    "Alternan (Rel. %)": 88
  },
  {
    "Compound": "OC[C@H]1O[C@@H](O[C@H]2[C@H](O)[C@@H](CO)OC(O)[C@@H]2O)[C@H](O)[C@@H](O)[C@@H]1O (some centres unmarked) [laminaribiose]",
    "Target entity": "alternansucrase",
    "Alternan (Rel. %)": 58
  },
  {
    "Compound": "CC(=O)N[C@@H]1C(O)O[C@H](CO)[C@@H](O)[C@@H]1O (stereo partly drawn) [N-acetyl-D-mannosamine]",
    "Target entity": "alternansucrase",
    "Alternan (Rel. %)": 93
  },
  {
    "Compound": "O=C[C@H](O)[C@@H](O)[C@H](O[C@@H]1O[C@H](CO)[C@@H](O)[C@H](O)[C@H]1O)[C@H](O)CO [cellobiose]",
    "Target entity": "alternansucrase",
    "Alternan (Rel. %)": 72
  },
  {
    "Compound": "OC[C@@H](O)[C@@H](O[C@H]1O[C@H](CO)[C@@H](O)[C@H](O)[C@H]1O)[C@H](O)[C@@H](O)CO [maltitol]",
    "Target entity": "alternansucrase",
    "Alternan (Rel. %)": 18
  }
]

Value sought for every listed compound: Alternan (Rel. %).
1. O=C(CO)[C@@H](O[C@H]1O[C@H](CO)[C@@H](O)[C@H](O)[C@H]1O)[C@H](O)[C@H](O)CO [turanose]
2. O=C[C@@H](O)[C@@H](O)[C@H](O)[C@H](O)CO [D-mannose]
3. CO[C@@H]1O[C@H](CO)[C@@H](O)[C@H](O)[C@H]1O [β-methyl-D-glucoside]
4. O=C[C@H](O)[C@@H](O[C@H]1O[C@H](CO)[C@@H](O)[C@H](O)[C@H]1O)[C@H](O)[C@H](O)CO[C@H]1O[C@H](CO)[C@@H](O)[C@H](O)[C@H]1O [3′-O-α-D-Glc isomaltose]
5. OC[C@@H](O)[C@H](O)[C@@H](O)CO [xylitol]
6. O=C[C@H](O)[C@@H](O)[C@H](O)[C@H](O)CO [D-glucose]
7. OC[C@H]1O[C@H](O[C@@H]2COC(O)(CO)[C@@H](O)[C@@H]2O)[C@H](O)[C@@H](O)[C@@H]1O (some centres unmarked) [leucrose]

[reply]
1. 57
2. 90
3. 60
4. 31
5. 97
6. 53
7. 81

Hi team, please reply with Alternan (Rel. %) for each item in this list.
1. OC[C@H]1O[C@H](OC[C@H]2O[C@H](O[C@H]3O[C@H](CO)[C@@H](O)[C@H](O)[C@H]3O)[C@H](O)[C@@H](O)[C@@H]2O)[C@H](O)[C@@H](O)[C@@H]1O [6-O-α-D-Glc-trehalose, 6-O-α-D-glucopyranosyl-α,α-trehalose]
2. OC[C@H]1O[C@H](OC[C@H]2O[C@H](O[C@H]3[C@H](O)[C@@H](O)C(O)O[C@@H]3CO)[C@H](O)[C@@H](O)[C@@H]2O)[C@H](O)[C@@H](O)[C@@H]1O (some centres unmarked) [panose]

[reply]
[56, 25]

Where these numbers come from: patent US7182954B1
